Test system: TFEB
Assay: TFEB nuclear translocation assay, HeLa wt cells
Assay type: cell-based
Conditions: Homo sapiens, HeLa, 2 h, 2 hrs compound treatment, Table 1 does not say HeLa wt or TRPML1 KO
Quick reference: AC50 of the listed items.
Readout: AC50

Molecule	Reported
CN(C)CC1(c2ccc(F)cc2)CCN(c2ccccc2NS(=O)(=O)c2ccc(S(=O)(=O)N(C)C)cc2)CC1	≤ 2000 nM
Cc1nc2ccc(S(=O)(=O)Nc3ccccc3N3CCN(C(=O)C(C)(C)C)CC3)cc2s1	≥ 10000 nM
CN(C)S(=O)(=O)c1ccc(S(=O)(=O)n2nc(C3CCN(c4c(F)cccc4F)CC3)c3c2CCCC3)cc1	≤ 2000 nM
COCC1(C)CCN(c2ccccc2NS(=O)(=O)c2cccc(C3CC3)c2)CC1	≤ 2000 nM
O=S(=O)(Nc1cccc(Cl)c1N1CCOCC1)c1ccccc1C1CC1	2010 to 8000 nM
CN1CC2CN(c3ccccc3NS(=O)(=O)c3ccc(S(=O)(=O)N(C)C)cc3)CC2C1 (centres unmarked)	≥ 10000 nM
C[C@@H]1CN(CC2CCN(c3c(F)cccc3NS(=O)(=O)c3ccc(S(=N)(=O)N(C)C)cc3)CC2)C[C@H](C)O1 (single isomer, unassigned) [Compound A-810]	≤ 2000 nM
O=S(=O)(Nc1ccccc1N1CCC(c2ccc(Cl)cc2F)CC1)c1ccccc1F	≥ 10000 nM

====

Quick reference: AC50 of the listed items.
Tested on: TFEB
Experiment: TFEB nuclear translocation assay, HeLa wt cells
Assay type: cell-based
Details: Homo sapiens, HeLa, 2 h, 2 hrs compound treatment, Table 1 does not say HeLa wt or TRPML1 KO

Compound	AC50
CN(C)S(=O)(=O)c1ccc(S(=O)(=O)Nc2nnc(N3CCN(c4ccc(Cl)cc4F)CC3)s2)cc1 [Compound A-36]	≤ 2 µM
CN(C)S(=O)(=O)c1ccc(S(=O)(=O)Nc2cccc(F)c2N2CCC(N)(C(F)(F)F)CC2)cc1 [Compound A-821]	≤ 2 µM
COC1(C(=O)N2CCN(c3ccccc3NS(=O)(=O)c3ccc(S(=O)(=O)N(C)C)cc3)CC2)CCCC1 [Compound A-444]	≤ 2 µM
C[C@@H]1CN(CC2CCN(c3c(F)cccc3NS(=O)(=O)c3ccc(S(=O)(=O)N(C)C)cc3)CC2)C[C@H](C)O1 [Compound A-755]	≤ 2 µM
CC1(C)CC2(CCN(c3ccccc3NS(=O)(=O)Cc3ccc(C(F)F)cc3)CC2)CO1 [Compound A-716]	2.01 to 8 µM
CS(=O)(=O)c1ccc(S(=O)(=O)Nc2ccccc2N2CCC3(CC2)CN(Cc2ccncc2)c2cc(F)ccc23)cc1 [Compound A-403]	2.01 to 8 µM
CC(C)(C)C(=O)N1CCN(c2ccccc2NS(=O)(=O)c2ccc(C(C)(C)C(F)(F)F)cc2)CC1 [Compound A-572]	2.01 to 8 µM

====

System: TFEB
Assay: TFEB nuclear translocation assay, HeLa wt cells
Type: cell-based
Settings: Homo sapiens, HeLa, 2 h, 2 hrs compound treatment, Table 1 does not say HeLa wt or TRPML1 KO

Molecule	AC50
Cc1ccc(S(=O)(=O)N2Cc3cccc(N4CCOCC4)c3C2)cc1 [Compound A-820]	≥ 10 µM
CN(C)S(=O)(=O)c1ccc(S(=O)(=O)Nc2cc(F)ccc2N2CCC3(CC2)COC(C)(C)C3)cc1 [Compound A-605]	≤ 2 µM
C[C@@H]1CN(c2nn(S(=O)(=O)c3ccc(S(=O)(=O)N(C)C)cc3)c3ccccc23)C[C@H](C)C1(F)F [Compound A-968]	≤ 2 µM
Cc1ccc(S(=O)(=O)Nc2ccccc2N2CCN(C(=O)C(C)c3ccccc3)CC2)cc1 (stereo not shown) [Compound A-334]	2.01 to 8 µM
O=S(=O)(Nc1ccccc1N1CCN(c2ccc(Cl)cc2F)CC1)C1CCCCC1 [Compound A-8]	≥ 10 µM
CN(C)S(=O)(=O)c1ccc(S(=O)(=O)Nc2ccccc2N2CCC(C3CCOCC3)CC2)cc1 [Compound A-548]	≤ 2 µM
CC(c1cccc(F)c1N1CCCCC1)S(=O)(=O)c1ccc(S(=O)(=O)N(C)C)cc1 (single isomer, unassigned) [Compound A-911]	≤ 2 µM
CS(=O)(=O)c1ccc(S(=O)(=O)Nc2ccccc2N2CCC(O)(c3ccc(F)cc3)CC2)cc1 [Compound A-203]	2.01 to 8 µM
Cc1ccc(N2CCOCC2)c(NS(=O)(=O)Cc2ccc3c(c2)COCC3)c1 [Compound A-629]	2.01 to 8 µM
COc1ccc(S(=O)(=O)Nc2ccccc2N2CCN(C(C)C(F)(F)F)CC2)cc1 (stereo not shown) [Compound A-531]	≤ 2 µM
COCC1(C)CCN(c2ccccc2NS(=O)(=O)Cc2ccccc2OC)CC1 [Compound A-595]	2.01 to 8 µM
O=S(=O)(Nc1cccc(Cl)c1N1CCOCC1)c1ccc(S(=O)(=O)C(F)F)cc1 [Compound A-274]	≥ 10 µM
CCC1(N2CCCC2)CCN(c2ccccc2NS(=O)(=O)c2ccc(S(=O)(=O)N(C)C)cc2)CC1 [Compound A-452]	8.01 to 9.99 µM
CN(C)S(=O)(=O)c1ccc(S(=O)(=O)Nc2ccccc2N2CCCC23CCCOC3)cc1 (stereo not shown) [Compound A-499]	≤ 2 µM
COc1ccc(Cl)cc1CS(=O)(=O)Nc1ccccc1N1CCN(C(=O)C(C)(C)C)CC1 [Compound A-563]	≥ 10 µM
CN(C)S(=O)(=O)c1ccc(S(=O)(=O)Nc2ccccc2N2CC(O)(c3ccc(Cl)cc3F)C2)cc1 [Compound A-162]	2.01 to 8 µM

====

Tested on: TFEB
Experiment: TFEB nuclear translocation assay, HeLa wt cells
Format: cell-based
Conditions: Homo sapiens, HeLa, 2 h, 2 hrs compound treatment, Table 1 does not say HeLa wt or TRPML1 KO

Compound	AC50
CN(C)S(=O)(=O)c1ccc(S(=O)(=O)Nc2cccc(F)c2N2CCC(C)(C(F)F)CC2)cc1 [Compound A-830]	≤ 2 µM
CS(=O)(=O)c1ccc(S(=O)(=O)Nc2ccccc2N2CCC(c3ncc(F)cc3F)CC2)cc1 [Compound A-131]	≤ 2 µM
O=S(=O)(Nc1ccccc1N1CCN(c2ccc(Cl)cc2F)CC1)c1cccnc1 [Compound A-1]	≤ 2 µM
CC(Sc1ccc(S(=O)(=O)C(F)F)cc1)c1cccc(F)c1N1CCCCC1 (stereo not shown) [Compound A-971]	2.01 to 8 µM
CCC1(OC)CCN(c2ccccc2NS(=O)(=O)c2ccc(S(=O)(=O)N(C)C)cc2)CC1 [Compound A-546]	≤ 2 µM
O=S(=O)(Nc1cc(Cl)ccc1N1CCCC2(COC2)C1)c1ccc2c(c1)CCC2 [Compound A-345]	2.01 to 8 µM
O=S(=O)(Nc1cccc(Cl)c1N1CCOCC1)c1cnn2c1CCCC2 [Compound A-369]	≥ 10 µM
CC1Cc2cc(S(=O)(=O)Nc3ccccc3N3CCN(C(=O)C(C)(C)C)CC3)ccc2O1 (stereo not shown) [Compound A-530]	2.01 to 8 µM
C[C@@H]1CN(CC2CCN(c3c(F)cccc3NS(=O)(=O)c3ccc4c(c3)OC(C)(C)C4)CC2)C[C@H](C)O1 [Compound A-780]	≤ 2 µM
CCOCCC1CCN(c2ccccc2NS(=O)(=O)c2ccc3c(c2)CC(C)(C)O3)CC1 [Compound A-631]	≤ 2 µM
CN(C)S(=O)(=O)c1ccc(S(=O)(=O)Nc2ccccc2N2CCC(CCCN3CCOCC3)CC2)cc1 [Compound A-547]	≤ 2 µM
COCC1(C)CCN(c2ccccc2NS(=O)(=O)c2ccc(C)c(F)c2)CC1 [Compound A-617]	2.01 to 8 µM
O=S(=O)(Nc1cc(Cl)ccc1N1CCC(c2c(F)cccc2F)CC1)c1ccc2c(c1)CCC2 [Compound A-292]	≤ 2 µM
COCC1(C)CCN(c2ccccc2NS(=O)(=O)c2ccc3c(c2)CC(C)(C)C3=O)CC1 [Compound A-639]	≥ 10 µM
CC1(C)CC2(CCN(c3ccccc3NS(=O)(=O)CCc3ccccc3)CC2)CO1 [Compound A-743]	≥ 10 µM
CC(c1ccccc1N1CCN(C2COC2)CC1)S(=O)(=O)c1ccc(S(=O)(=O)N(C)C)cc1 (stereo not shown) [Compound A-603]	2.01 to 8 µM

====

Quick reference: AC50 of the listed items.
System: TFEB
Test: TFEB nuclear translocation assay, HeLa wt cells
Format: cell-based
Conditions: Homo sapiens, HeLa, 2 h, 2 hrs compound treatment, Table 1 does not say HeLa wt or TRPML1 KO
Readout: AC50

Compound	Readout	Reported
CC(c1cccc(F)c1N1CCCCC1)S(=O)(=O)c1ccc(S(=O)(=O)N(C)C)nn1 (stereo not shown) [Compound A-941]	AC50	2.01 to 8 µM
CN(C)S(=O)(=O)c1ccc(S(=O)(=O)Nc2ccccc2N2CCN(C(=O)C(O)c3ccccc3)CC2)cc1 (stereo not shown) [Compound A-335]	AC50	≥ 10 µM
COC(=O)NC1(C)CCN(c2c(F)cccc2NS(=O)(=O)c2ccc(S(=O)(=O)N(C)C)cc2)CC1 [Compound A-825]	AC50	≤ 2 µM
Cn1nccc1S(=O)(=O)Nc1cccc(Cl)c1N1CCOCC1 [Compound A-329]	AC50	≥ 10 µM
CN(C)S(=O)(=O)c1ccc([S+]([O-])Cc2ccccc2N2CCC(c3ccc(Cl)cc3F)CC2)cc1 (stereo not shown) [Compound A-190]	AC50	≤ 2 µM
CN(C)S(=O)(=O)c1ccc(S(=O)(=O)Nc2ccccc2N2CCCN(C(=O)C(C)(C)C)CC2)cc1 [Compound A-480]	AC50	2.01 to 8 µM
O=S(=O)(Nc1ccccc1N1CCC(c2ccc(Cl)cc2F)CC1)c1cc(F)cc(F)c1 [Compound A-91]	AC50	≥ 10 µM
